Kindly state Activity for each of the entries shown.
System: Mus musculus
Assay: Peripheral analgesic activity in Swiss albino mouse assessed as protection against acetic acid-induced writhing response at 20 mg/kg, po administered 30 mins before acetic acid challenge measured after 30 mins relative to control
Format: functional

O=c1c2c(-c3ccc(Cl)cc3)c3c(nc2nc2sc4c(n12)ONC4c1ccccc1)/C(=C\c1ccc(Cl)cc1)CCC3 (stereo not drawn) | 46.7%
O=C([O-])Cc1ccccc1Nc1c(Cl)cccc1Cl.[Na+] [DICLOFENAC SODIUM] | 46%
O=c1[nH]c(=S)[nH]c2c1C(c1ccccc1)C1=C(N2)/C(=C/c2ccccc2)CCC1 (stereo not drawn) | 61.2%
CC(=O)c1sc2nc3nc4c(c(-c5ccc(Cl)cc5)c3c(=O)n2c1C)CCC/C4=C/c1ccc(Cl)cc1 | 43.5%
COc1ccc(/C=C2\CCCC3=C2Nc2[nH]c(=S)[nH]c(=O)c2C3c2ccc(OC)cc2)cc1 (stereo not drawn) | 69%

Give one value of Activity per listed molecule.
1. CSC1=Nc2nc3c(c(-c4ccc(Cl)cc4)c2C(N2CCOCC2)N1)CCC/C3=C/c1ccc(Cl)cc1 (stereo not drawn)
2. CC(=O)C(Sc1nc2nc3c(c(-c4ccc(Cl)cc4)c2c(=O)[nH]1)CCC/C3=C/c1ccc(Cl)cc1)C(C)=O

# output
["45.2%", "46%"]

# input Specify Activity for CSC1=Nc2nc3c(c(-c4ccc(Cl)cc4)c2C(N2CCNCC2)N1)CCC/C3=C/c1ccc(Cl)cc1 (stereo not drawn) and stop.
# output 49.5%

----------
Test system: Mus musculus
Test: Central analgesic activity in Swiss albino mouse assessed as thermal stimuli reaction time at 20 mg/kg, po after 90 mins by hot plate method
Assay type: functional
measure: Activity (min)
One number for each entry, in min.

Example cases with answers are listed next.
O=C([O-])Cc1ccccc1Nc1c(Cl)cccc1Cl.[Na+] [DICLOFENAC SODIUM] | 13.2
O=c1c2c(-c3ccc(Cl)cc3)c3c(nc2nc2sc4c(n12)ONC4c1ccccc1)/C(=C\c1ccc(Cl)cc1)CCC3 (stereo not drawn) | 12.68
CC(=O)c1sc2nc3nc4c(c(-c5ccc(Cl)cc5)c3c(=O)n2c1C)CCC/C4=C/c1ccc(Cl)cc1 | 12
COc1ccc(/C=C2\CCCC3=C2Nc2[nH]c(=S)[nH]c(=O)c2C3c2ccc(OC)cc2)cc1 (stereo not drawn) | 11.88
CSC1=Nc2nc3c(c(-c4ccc(Cl)cc4)c2C(N2CCNCC2)N1)CCC/C3=C/c1ccc(Cl)cc1 (stereo not drawn) | 11.5

Give one value of Activity per listed compound.
1. O=c1[nH]c(=S)[nH]c2c1C(c1ccccc1)C1=C(N2)/C(=C/c2ccccc2)CCC1 (stereo not drawn)
2. CC(=O)C(Sc1nc2nc3c(c(-c4ccc(Cl)cc4)c2c(=O)[nH]1)CCC/C3=C/c1ccc(Cl)cc1)C(C)=O
3. O=c1[nH]c(=S)[nH]c2c1C(c1ccc(Cl)cc1)C1=C(N2)/C(=C/c2ccc(Cl)cc2)CCC1 (stereo not drawn)

# output
[11.67, 10.4, 11.67]

----------
Kindly state Activity for each of the entries shown.
System: Rattus norvegicus
Test: Antiinflammatory activity in Sprague-Dawley rat assessed as protection against carrageenan-induced hind paw edema at 20 mg/kg, po administered 1 hr before carrageenan challenge measured after 2 hrs
Format: functional
Give bare numbers, in %.

Example cases with answers are listed next.
CSC1=Nc2nc3c(c(-c4ccc(Cl)cc4)c2C(N2CCNCC2)N1)CCC/C3=C/c1ccc(Cl)cc1 (stereo not drawn) | 52
O=C([O-])Cc1ccccc1Nc1c(Cl)cccc1Cl.[Na+] [DICLOFENAC SODIUM] | 60.3
CSC1=Nc2nc3c(c(-c4ccc(Cl)cc4)c2C(N2CCOCC2)N1)CCC/C3=C/c1ccc(Cl)cc1 (stereo not drawn) | 47.1
O=c1/c(=C/c2ccccc2)sc2nc3nc4c(c(-c5ccc(Cl)cc5)c3c(=O)n12)CCC/C4=C/c1ccc(Cl)cc1 | 59.3

Give one value of Activity per listed compound.
1. O=c1[nH]c(=S)[nH]c2c1C(c1ccccc1)C1=C(N2)/C(=C/c2ccccc2)CCC1 (stereo not drawn)
2. COc1ccc(/C=C2\CCCC3=C2Nc2[nH]c(=S)[nH]c(=O)c2C3c2ccc(OC)cc2)cc1 (stereo not drawn)
3. CC(=O)c1sc2nc3nc4c(c(-c5ccc(Cl)cc5)c3c(=O)n2c1C)CCC/C4=C/c1ccc(Cl)cc1

# output
53.2
62.4
44.2

# input Specify Activity for O=c1c2c(-c3ccc(Cl)cc3)c3c(nc2nc2sc4c(n12)ONC4c1ccccc1)/C(=C\c1ccc(Cl)cc1)CCC3 (stereo not drawn) and stop.
# output 57.1
